Each entry below carries its recorded Binding affinity.
Molecular target: T1, recombinant cynomolgus monkey (Macaca fascicularis) TfR1 (cynomolgus monkey (Macaca fascicularis), UniProt Q5RDH6 87-760 (Pongo abelii entry), limits assumed)
T1 construct: Recombinant protein; also called cTfR1; cyTfR1
T1 chain: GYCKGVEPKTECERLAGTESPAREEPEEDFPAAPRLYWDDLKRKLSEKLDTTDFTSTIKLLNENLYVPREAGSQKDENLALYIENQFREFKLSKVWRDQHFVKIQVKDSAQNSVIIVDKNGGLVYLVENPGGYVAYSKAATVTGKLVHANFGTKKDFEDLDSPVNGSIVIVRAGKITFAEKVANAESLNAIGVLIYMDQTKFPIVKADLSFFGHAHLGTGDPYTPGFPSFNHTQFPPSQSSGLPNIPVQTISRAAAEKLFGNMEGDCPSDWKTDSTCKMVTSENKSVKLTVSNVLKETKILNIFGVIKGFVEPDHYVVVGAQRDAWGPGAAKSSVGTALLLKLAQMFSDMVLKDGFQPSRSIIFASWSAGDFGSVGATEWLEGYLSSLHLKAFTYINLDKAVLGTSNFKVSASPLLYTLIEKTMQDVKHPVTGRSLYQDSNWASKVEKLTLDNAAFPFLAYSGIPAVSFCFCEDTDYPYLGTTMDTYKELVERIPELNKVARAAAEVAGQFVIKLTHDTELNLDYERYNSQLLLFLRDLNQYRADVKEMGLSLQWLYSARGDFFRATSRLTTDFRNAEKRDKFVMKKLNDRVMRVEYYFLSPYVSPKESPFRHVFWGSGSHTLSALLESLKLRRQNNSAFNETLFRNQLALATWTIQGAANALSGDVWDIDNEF
Assay: Table 14, unconjugated Fab, d0; method not named (values equal ELISA row of Table 13)

Binder: humanized anti-TfR Fab 5H12 VH5 (C33Y)/Vκ3 (Fab, V domains shown, also called 5H12 (VH5-C33Y/Vk3)) VH: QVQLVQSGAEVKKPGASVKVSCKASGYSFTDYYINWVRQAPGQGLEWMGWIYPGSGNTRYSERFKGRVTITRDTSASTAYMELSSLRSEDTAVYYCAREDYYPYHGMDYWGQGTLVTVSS VL: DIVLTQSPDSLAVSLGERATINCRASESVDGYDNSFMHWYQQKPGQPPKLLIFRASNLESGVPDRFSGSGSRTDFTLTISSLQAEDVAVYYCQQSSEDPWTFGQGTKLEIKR
Binding affinity (nM): 2.1
--
Binder: humanized anti-TfR Fab 3M12 VH3/Vκ3 (Fab, V domains shown, also called 3M12 (VH3/Vk3)) VH: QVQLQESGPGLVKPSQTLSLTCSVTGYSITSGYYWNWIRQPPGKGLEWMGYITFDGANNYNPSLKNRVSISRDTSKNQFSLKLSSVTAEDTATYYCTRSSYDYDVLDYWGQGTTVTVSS VL: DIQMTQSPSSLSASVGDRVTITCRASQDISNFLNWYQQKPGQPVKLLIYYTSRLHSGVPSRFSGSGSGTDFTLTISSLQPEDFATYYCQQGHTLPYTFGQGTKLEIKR
Binding affinity (nM): 4.7
--
Binder: humanized anti-TfR Fab 5H12 VH5 (C33D)/Vκ4 (Fab, V domains shown, also called 5H12 (VH5-C33D/Vk4)) VH: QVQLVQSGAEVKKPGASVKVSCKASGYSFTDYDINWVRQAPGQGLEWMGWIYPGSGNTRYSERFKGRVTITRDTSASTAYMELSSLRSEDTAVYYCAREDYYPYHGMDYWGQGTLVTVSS VL: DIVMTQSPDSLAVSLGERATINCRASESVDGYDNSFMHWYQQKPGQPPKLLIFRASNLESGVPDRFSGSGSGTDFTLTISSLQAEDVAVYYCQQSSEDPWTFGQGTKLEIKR
Binding affinity (nM): 3.5
--
Binder: humanized anti-TfR Fab 3M12 VH4/Vκ3 (Fab, V domains shown, also called 3M12 (VH4/Vk3); anti-TfR Fab 3M12 VH4/Vk3) VH: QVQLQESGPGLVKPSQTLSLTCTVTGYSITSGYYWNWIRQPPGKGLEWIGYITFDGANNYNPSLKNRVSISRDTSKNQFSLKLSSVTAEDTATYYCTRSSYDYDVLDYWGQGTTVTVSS VL: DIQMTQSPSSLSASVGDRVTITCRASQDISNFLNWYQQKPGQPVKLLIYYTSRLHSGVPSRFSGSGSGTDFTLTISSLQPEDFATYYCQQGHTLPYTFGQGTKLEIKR
Binding affinity (nM): 2.2
--
Binder: humanized anti-TfR Fab 5H12 VH5 (C33Y)/Vκ4 (Fab, V domains shown, also called 5H12 (VH5-C33Y/Vk4)) VH: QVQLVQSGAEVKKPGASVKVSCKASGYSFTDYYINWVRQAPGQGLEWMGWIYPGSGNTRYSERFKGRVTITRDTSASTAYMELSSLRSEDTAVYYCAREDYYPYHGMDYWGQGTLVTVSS VL: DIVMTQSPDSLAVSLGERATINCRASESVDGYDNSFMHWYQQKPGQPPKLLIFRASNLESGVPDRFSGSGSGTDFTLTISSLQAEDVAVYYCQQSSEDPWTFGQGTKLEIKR
Binding affinity (nM): 3.3
--
Binder: humanized anti-TfR Fab 3M12 VH4/Vκ2 (Fab, V domains shown, also called 3M12 (VH4/Vk2)) VH: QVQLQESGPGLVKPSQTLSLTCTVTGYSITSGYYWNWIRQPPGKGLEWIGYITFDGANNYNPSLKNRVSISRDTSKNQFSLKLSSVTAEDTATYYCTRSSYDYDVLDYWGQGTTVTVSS VL: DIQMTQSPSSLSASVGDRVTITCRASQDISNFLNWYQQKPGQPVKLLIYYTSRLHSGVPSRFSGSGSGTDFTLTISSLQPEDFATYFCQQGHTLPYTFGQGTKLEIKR
Binding affinity (nM): 1.4
--
Binder: humanized anti-TfR Fab 3A4 VH3 (N54S)/Vκ4 (Fab, V domains shown, also called 3A4 (VH3-N54S/Vk4)) VH: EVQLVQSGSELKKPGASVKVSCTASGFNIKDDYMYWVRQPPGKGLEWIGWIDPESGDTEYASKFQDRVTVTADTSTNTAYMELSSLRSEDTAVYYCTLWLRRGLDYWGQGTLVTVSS VL: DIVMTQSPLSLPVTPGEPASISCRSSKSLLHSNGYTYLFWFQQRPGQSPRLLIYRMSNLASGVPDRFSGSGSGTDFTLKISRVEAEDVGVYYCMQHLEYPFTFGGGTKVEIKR
Binding affinity (nM): 398
--
Binder: humanized anti-TfR Fab 3A4 VH3 (N54T)/Vκ4 (Fab, V domains shown, also called 3A4 (VH3-N54T/Vk4)) VH: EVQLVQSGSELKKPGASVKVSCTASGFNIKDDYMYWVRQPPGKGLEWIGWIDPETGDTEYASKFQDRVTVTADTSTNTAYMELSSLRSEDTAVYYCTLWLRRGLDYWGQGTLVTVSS VL: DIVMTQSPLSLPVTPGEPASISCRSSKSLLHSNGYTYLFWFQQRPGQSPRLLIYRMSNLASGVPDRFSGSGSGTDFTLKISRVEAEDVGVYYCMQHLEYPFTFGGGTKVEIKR
Binding affinity (nM): 156
--
Binder: humanized anti-TfR Fab 3A4 VH3/Vκ4 (Fab, V domains shown, also called 3A4 (VH3/Vk4)) VH: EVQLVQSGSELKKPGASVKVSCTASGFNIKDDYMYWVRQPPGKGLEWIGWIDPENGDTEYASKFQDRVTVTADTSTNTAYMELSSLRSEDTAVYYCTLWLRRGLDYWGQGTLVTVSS VL: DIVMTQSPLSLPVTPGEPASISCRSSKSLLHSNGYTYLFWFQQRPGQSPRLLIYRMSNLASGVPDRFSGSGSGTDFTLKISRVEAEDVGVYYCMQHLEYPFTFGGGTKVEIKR
Binding affinity (nM): 122
--
Binder: humanized anti-TfR Fab 3M12 VH3/Vκ2 (Fab, V domains shown, also called 3M12 (VH3/Vk2)) VH: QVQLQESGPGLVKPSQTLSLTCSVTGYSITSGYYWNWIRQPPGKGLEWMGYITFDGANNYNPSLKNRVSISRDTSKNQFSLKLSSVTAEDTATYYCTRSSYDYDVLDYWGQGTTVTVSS VL: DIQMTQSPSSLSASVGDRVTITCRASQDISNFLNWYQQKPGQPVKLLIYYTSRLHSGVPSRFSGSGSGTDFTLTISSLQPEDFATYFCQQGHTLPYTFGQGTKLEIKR
Binding affinity (nM): 9.9
